- Tested on: Malme-3M
- assay_details: NCI tumour cell line growth inhibition, 48 h
Calls of active or inactive are those of the source. No stated cut-off is given here; in the data, active = GI50 up to about 1.1 µM and inactive = higher.
readout_label: GI50

query: Give GI50; test system Malme-3M; molecule COCOCCCCCO[Si](C)(C)C(C)(C)C
result: 18.2 µM (inactive)

query: Retrieve GI50 on Malme-3M; query C/C(=C\COP(=O)(O)OP(=O)(O)O)CCCCCCOCc1ccccc1
result: > 100 µM (inactive)

query: // output GI50; input O=C1OC(c2ccccc2)=N/C1=C\c1ccc(Oc2ccc(Cl)c(Cl)c2)cc1 ; system Malme-3M
result: 26 µM (inactive)

query: Provide the reported GI50 (system: Malme-3M) for COc1ccc(Cc2c(-c3ccc(C)cc3)n[nH]c(=O)c2C2C(=O)N(c3ccccc3)N=C2c2ccccc2)cc1 (stereo not given)
result: 24.1 µM (inactive)

query: State GI50 (Malme-3M) of C=C1C(O)C23CCC4C(C(=O)O)(C(=O)O)CC(OC5OC(CO)C(O)C(OC(=O)CCc6ccccc6)C5NC(=O)CC(C)C)CC4(C)C2CCC1(O)C3 (stereo not given) .
result: > 100 µM (inactive)

query: Under Malme-3M: report GI50 of c1ccc2c3nnc(c2c1)SCCSCCCSCCS3 .
result: 29.6 µM (inactive)

query: Lab note: record GI50 of NNC(=O)CCc1ccc2ccc3ccccc3c2c1 tested on Malme-3M.
result: 79.1 µM (inactive)

query: Supply GI50 measured with Malme-3M for COC1(OC)CCCc2c1no[n+]2[O-] .
result: > 100 µM (inactive)

query: Enter measured GI50, system Malme-3M, for the molecule shown: Cc1ccc(OCC2OC(n3cnc4c(Cl)nc(Cl)nc43)CC2Oc2ccc(C)cc2)cc1 (stereo not given)
result: 2.18 µM (inactive)

query: State recorded GI50 with Malme-3M, entry O=C(Nc1cccc(C(F)(F)F)c1)C(=O)C(C(=O)c1ccc2ccccc2c1)C1OC(=O)c2ccccc21 (stereo not given) , no comment.
result: 6.81 µM (inactive)

----------
- Test system: NCI/ADR-RES
- assay_details: NCI tumour cell line growth inhibition, 48 h
Activity calls are given as the source filed them. Rule as the data show it: active = GI50 up to about 1.1 µM and inactive = higher.
Thanks in advance; please answer with one of these: yes (1) for active, no (0) for inactive

query: What call does the record list for O=P1(c2ccccc2)Nc2ccccc2SSc2ccccc2N1 ?
result: no (0)

query: Which result was noted for this molecule in the test: CCc1n[nH]c(=O)n1/N=C/c1ccc(/C=N/n2c(CC)n[nH]c2=O)cc1
result: no (0)

query: Field: outcome | Entry: Cc1ccc2oc3c(ccc(=O)n3C)c(=O)c2c1
result: no (0)

query: Called result for CC(C)c1c(P(=O)(c2ccccc2)c2ccccc2)n(C)c2ccccc12
result: no (0)

query: # fetch the recorded call for COc1ccc(N2C(=O)[C@H]3[C@H]4CC(C(C)(C)C)CC[C@H]4c4c(n(C)c5ccccc45)[C@H]3C2=O)cc1 (stereo not given in full) here
result: no (0)

query: Would you mind telling me which call this test gave CN(C)c1nc(N(C)C)nc(N(C)C)n1 [ALTRETAMINE] ?
result: no (0)

query: Please indicate how the test categorized O=c1c2sc3nc(NCCN4CCCCC4)ncc3c2ncn1-c1ccccc1 .
result: no (0)

query: Hi, sorry to bother you, what did the test record for CC(C)(C)[Si](C)(C)OCC1OC(n2cnc3c(N)ncnc32)CC1OS(C)(=O)=O (stereo not given) ?
result: no (0)

query: For O=C(N/N=C/c1ccccc1O)c1ccccc1Nc1ccccc1C(=O)N/N=C/c1ccccc1O , what call appears in the results of this test?
result: yes (1)

query: Please share the test call associated with C1CC2=C(C1)[Se]C(=C1Sc3nsnc3S1)[Se]2 .
result: no (0)

----------
- System: M19-MEL
- assay_details: NCI tumour cell line growth inhibition, 48 h
Active and inactive are the calls of the source. Cut-off read from the data, not from the text of the source: active = GI50 up to about 1.1 µM and inactive = higher.
Use one of these outcomes when replying: yes = active, no = inactive

query: Kindly provide the recorded test outcome for the following compound: NC1=C(C(=O)O)C(=O)C(Nc2c(O)cccc2C(=O)O)=CC1=O
result: no

query: Hello, I am checking results. What call was entered for Cn1c(NC(=O)NC23CC4CC(CC(C4)C2)C3)nc2ccccc21 ?
result: no

query: Please share the test call associated with CC(=O)OC1CC2(O)C(CCC3(C)C(c4ccc(=O)oc4)CCC32O)C2(C)C1=CC(O)C1OC12 (configuration not stated) .
result: yes

query: Which outcome was assigned to CN(C)CCNC(=O)c1cccc2c1nc(-c1ccccn1)c1ccccc12 in this test?
result: no

query: Recorded test outcome, item CC(=O)Nc1ccc(/C=C/C(=O)c2sc(C(N)=S)nc2C)cc1
result: no

query: Test call for this compound, please: Cc1cc(NS(=O)(=O)c2ccc(Nc3c4ccccc4nc4c(C(=O)Nc5ccc(S(=O)(=O)N=C(N)N)cc5)ccc(Cl)c34)cc2)no1
result: no

query: Field: outcome | Entry: COc1cc(C2c3cc4c(cc3[C@H](OCCN(C)C)[C@@H]3COC(=O)C23)OCO4)cc(OC)c1O (some centres not stated)
result: yes

query: Returns: the outcome recorded for CCn1cnc2c(=S)nc(N)[nH]c21 in this assay.
result: no

query: Short answer needed: outcome of this test for COc1ccc(N(C)Sc2ccccc2)cc1 ?
result: no

query: # outcome recorded in this test, key = O=C(c1ccc(Cl)cc1)c1ccc(OCCCOc2ccc(C(=O)c3ccc(Cl)cc3)cc2)cc1
result: no

query: Called result for O=C(O/N=C1/CCCC/C1=C\c1ccccc1)c1ccc(Cl)c(Cl)c1
result: no

query: What outcome does the record of this test show for Cc1cc(C)cc(Sc2c([N+](=O)[O-])ncn2C)c1 ?
result: no

query: Test call for this compound, please: CCN1CCC(O)(c2ccc(C)cc2)C(C(=O)c2ccc(C)cc2)C1 (configuration not stated)
result: no

query: Hi, sorry to bother you, what did the test record for C/C(CCn1[nH]c(=O)ccc1=O)=N\N=C(N)N ?
result: no

query: What classification did OCC(O)COc1c(Cl)ccc(Cl)c1Cl (configuration not stated) end up with in this test?
result: no

query: GET /call?item= Cc1ccc(S(=O)(=O)c2c(N)n(CCN(C)C)c3nc4ccccc4nc23)cc1 returns the recorded outcome of this test.
result: no

query: Status in this test for COc1cccc2c1C(=O)c1c(O)c3c(c(O)c1C2=O)C[C@@](O)(C(=O)CO)C[C@@H]3OC1CC(N2CCOCC2)C(O)C(C)O1 (some centres not stated) ?
result: yes

----------
Would you mind telling me the reported GI50 of each entry?
- Test system: SK-MEL-28
- assay_details: NCI tumour cell line growth inhibition, 48 h
Calls of active or inactive are those of the source. Rule as the data show it: active = GI50 up to about 1.1 µM and inactive = higher.

query: # return recorded GI50 for input CN(C)CCNC(=O)c1cccc2ccc(-c3ccc(O)cc3)nc12
result: 3.15 µM (inactive)

query: # return recorded GI50 for entry O=C(Nc1ccccc1)c1cc2ccccc2c(/N=N\c2cccc([N+](=O)[O-])c2)c1O
result: 94.4 µM (inactive)

query: Return reported GI50. Input compound: O=C(OCc1ccccc1)C(Cc1ccccc1)N(Cc1ccccc1)Cc1ccccc1 (configuration not stated)
result: > 100 µM (inactive)

query: Using the record for CCOC(=O)c1ccc(NC(=O)Oc2ccc3c(C)cc(=O)oc3c2)cc1 , state its measured GI50.
result: 34.9 µM (inactive)

query: Supply recorded GI50 for COCOCCCCCO[Si](C)(C)C(C)(C)C here.
result: 35.1 µM (inactive)

query: Give the reported value of GI50 for this record: Cc1cc(Cl)ccc1NC(=O)CC/C(CC(=O)C(C)C)=N\NC(=O)C[n+]1ccccc1
result: > 100 µM (inactive)

query: Hello, please tell me recorded GI50 for this one: COC(=O)C1(CCC(C)=O)CCCCCC1=O (configuration not stated)
result: > 100 µM (inactive)

----------
- System: HL-60
- assay_details: NCI tumour cell line growth inhibition, 48 h
The source made the active and inactive calls. Cut-off read from the data, not from the text of the source: active = GI50 up to about 1.1 µM and inactive = higher.
For each entry below, report its GI50 value.

query: Output measured GI50 for this item: O=C(O)/C(Cc1ccnc2ccccc12)=N\O
result: > 100 µM (inactive)

query: Let me know recorded GI50 for CNC(=O)OCc1nc(SC2CCCCO2)n(C)c1COC(=O)NC (configuration not stated) , thanks.
result: > 100 µM (inactive)

query: Look up GI50 of COc1nc2cccc(C(O)c3ccccc3)c2nc1-c1ccccc1 (configuration not stated) and report it.
result: 3.18 µM (inactive)

query: Tell us which GI50 value is on record for CN(O)C(=O)Cc1ccc(OCc2cccc(Cl)c2)cc1
result: > 100 µM (inactive)

query: Return GI50 (reported value) for this compound: COCOCCCCCO[Si](C)(C)C(C)(C)C
result: 7.1 µM (inactive)

query: Please give the documented GI50 of CC#CS(=O)(=O)c1ccccc1
result: 1.8 µM (inactive)

query: Quote GI50 reported for CN1c2ccccc2C(=O)NC12CCN(CCCC(=O)c1ccc(F)cc1)CC2 please.
result: 30.7 µM (inactive)
